# Tested on: rodent lifetime carcinogenesis bioassay, tumor incidence TD50
# measurement.notes: carcinogenic potency in animals, long-term in vivo studies, CPDB compilation (AID 1745844)
# condition.description: rat; strain Sprague-Dawley; females; in feed; site: ear duct; lesion: squamous-cell carcinoma; dosed 110 weeks; study length 110 weeks
measured.property: TD50

Problem: What measured TD50 goes with CCOc1ccc(NC(C)=O)cc1 ?
Solution: 1430 mg/kg/day

---

# System: rodent lifetime carcinogenesis bioassay, tumor incidence TD50
# measurement.notes: carcinogenic potency in animals, long-term in vivo studies, CPDB compilation (AID 1745844)
# condition.description: mouse; strain Charles River CD1; females; in drinking water; site: any site (literature study); lesion: several types; types named in the paper; dosed 143 weeks; study length 151 weeks
Calls of active or inactive are those of the source. No rule for the calls is given here.
measured.property: TD50

Problem: // TD50 lookup, key: [CH3][Hg][Cl]
Solution: 2.13 mg/kg/day (inactive)
